- Protocol: In vivo PK study, plasma HPLC MS/MS
- Set-up: species or system mouse
- Condition Info: NOD/SCID, mouse, plasma; estimated; single oral gavage of 50 mg/kg, mice
Observable: half-life

# input compound: Cc1cc(C)cc(NC(=O)c2cnn(-c3ccc(C(C)C)cc3)c2C2CCNCC2)c1 [IPR-69] ; wanted: its half-life
~2 h

###

- Target Under Test: uPAR (Homo sapiens, UniProt Q03405)
- Construct: human uPAR (suPAR, amino acids 1-283) was expressed in stably transfected Drosophila S2 cells; made in house; host or cells: Drosophila S2 cells
- Sequence (Q03405 23-305): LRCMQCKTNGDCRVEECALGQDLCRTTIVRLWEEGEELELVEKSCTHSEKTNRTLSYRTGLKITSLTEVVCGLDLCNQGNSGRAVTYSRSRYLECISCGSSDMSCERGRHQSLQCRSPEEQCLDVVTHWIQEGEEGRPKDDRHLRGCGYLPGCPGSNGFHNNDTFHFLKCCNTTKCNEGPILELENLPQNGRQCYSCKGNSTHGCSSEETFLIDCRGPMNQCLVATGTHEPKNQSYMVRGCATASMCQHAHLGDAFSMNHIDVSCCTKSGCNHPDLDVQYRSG
- Protocol: Fluorescence polarization assay, displacement of AE147-FAM peptide from uPAR
- Type: binding
- Condition Info: Table 1; assay not stated
Observable: pIC50
Just the number, please; pIC50 means minus log10 of the concentration in mol/L.

# input compound: c1ccc(CNCCC(Cc2ccccc2)c2ccc3c(c2)OCO3)cc1 (stereo not shown) [IPR-021] ; wanted: its pIC50
4.23

###

- Target Under Test: uPAR (Homo sapiens, UniProt Q03405)
- Construct: human uPAR (suPAR, amino acids 1-283) was expressed in stably transfected Drosophila S2 cells; made in house; host or cells: Drosophila S2 cells
- Protocol: Fluorescence polarization assay, displacement of AE147-FAM peptide from uPAR
- Type: binding
- Condition Info: Table 1; assay not stated; read-out: Ki
pKi values by entry
Just the number, please; pKi means minus log10 of the concentration in mol/L.

# input compound: c1ccc(CNCCC(Cc2ccccc2)c2ccc3c(c2)OCO3)cc1 (stereo not shown) [IPR-021] ; wanted: its pKi
4.75

# input compound: CN(C)c1ccc(CNCCC(Cc2ccccc2)c2ccc3c(c2)OCO3)cc1 (racemic) [IPR-9] ; wanted: its pKi
5.13

# input compound: COc1ccccc1C(CCNCc1ccccc1)c1ccc2c(c1)OCO2 (stereo not shown) [IPR-022] ; wanted: its pKi
5.14

# input compound: COc1ccc(N2C(=O)CCC(C(=O)Nc3ccc(OC)c(Cl)c3)C2c2ccc(OC)c(OC)c2)cc1 (stereo not shown) [IPR-108] ; wanted: its pKi
4.89

###

- System: human umbilical vein endothelial cells (HUVEC)
- Protocol: Matrigel-based tube formation (angiogenesis) assay
- Assay type: cell-based
- Condition Info: HUVEC in Matrigel
pIC50 values by entry
Just the number, please; pIC50 means minus log10 of the concentration in mol/L.

> print(dat)
                                   compound  measured.number
1  CN(C)c1ccc(CNCCC(Cc2ccccc2)c2ccc3c(c2)OCO3)cc1 (racemic)             5.52

Below: the item to evaluate.
# input compound: `Cc1cc(C)cc(NC(=O)c2cnn(-c3ccc(C(C)C)cc3)c2C2CCNCC2)c1` ; wanted: its pIC50
5.52

###

IC50 values by entry
- Tested on: MDA-MB-231 cells
- Protocol: MTT proliferation assay
- Type: cell-based, human
- Condition Info: Homo sapiens, MDA-MB-231, MDA-MB-231; read-out: IC50 of cell proliferation (MTT)
Numbers only; they are read as µM.

> print(dat)
                                   compound  observable  uom  measured.number
1  CN(C)c1ccc(CNCCC(Cc2ccccc2)c2ccc3c(c2)OCO3)cc1 (racemic)        IC50   µM                6

Below: the item to evaluate.
What measured IC50 is associated with `Cc1cc(C)cc(NC(=O)c2cnn(-c3ccc(C(C)C)cc3)c2C2CCNCC2)c1` on MDA-MB-231 cells?
18

###

- System: MDA-MB-231 cells
- Protocol: Adhesion assay on fibronectin-coated wells
- Assay type: cell-based, human
- Condition Info: Homo sapiens; MDA-MB-231, fibronectin
Observable: IC50

# input compound: `Cc1cc(C)cc(NC(=O)c2cnn(-c3ccc(C(C)C)cc3)c2C2CCNCC2)c1` ; wanted: its IC50
45 µM
